Please respond with reported Emax for every item in the list.
Measurement Target: human M2 receptor (Homo sapiens, UniProt P08172)
Sequence (P08172 whole entry): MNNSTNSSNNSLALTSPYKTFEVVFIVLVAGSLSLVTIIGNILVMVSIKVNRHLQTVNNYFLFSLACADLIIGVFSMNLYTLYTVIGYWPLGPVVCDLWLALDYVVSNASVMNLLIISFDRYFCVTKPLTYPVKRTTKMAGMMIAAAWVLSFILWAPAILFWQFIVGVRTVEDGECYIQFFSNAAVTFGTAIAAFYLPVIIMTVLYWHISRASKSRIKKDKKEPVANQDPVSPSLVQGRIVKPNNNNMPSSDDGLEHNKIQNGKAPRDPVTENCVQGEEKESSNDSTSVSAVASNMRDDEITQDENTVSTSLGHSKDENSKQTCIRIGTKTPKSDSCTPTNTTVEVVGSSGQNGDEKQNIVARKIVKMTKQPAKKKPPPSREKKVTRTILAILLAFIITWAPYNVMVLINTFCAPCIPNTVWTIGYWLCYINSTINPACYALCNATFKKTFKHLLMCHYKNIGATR
Experiment Notes: Functional M2-GIRK1/4 activation test: allosteric potency (EC50) and efficiency
Recorded Conditions: read-out: Efficiency, boosting of the acetylcholine effect at EC20 acetylcholine concentration; CHO-DUKX-M2-GIRK cells
One number for each entry, in %.

The examples below pair each entry with its known result.
Compound	Measurement Target	Measure Name	Units Of Measure	Endpoint Value
O=C(NC(c1ccccc1Cl)C(F)(F)F)c1cn(-c2ncc(F)cc2F)c2nc(N3CCNC3=O)ccc2c1=O (single isomer, unassigned) [Example 148]	human M2 receptor (Homo sapiens, UniProt P08172)	Emax	%	100
CC[C@H](NC(=O)c1cn(-c2ncc(F)cc2F)c2nc(N3CCNC3=O)ccc2c1=O)C(F)(F)F [Example 64]	human M2 receptor (Homo sapiens, UniProt P08172)	Emax	%	91.3

# map each compound to its Emax
1. O=C(NC(c1ccc(F)cc1)C(F)(F)F)c1cn(-c2ncc(F)cc2F)c2nc(N3C[C@@H](O)CC3=O)ccc2c1=O (single isomer, unassigned) [Example 12]
2. CC[C@H](NC(=O)c1cn(-c2c(F)cncc2F)c2nc(N3C[C@@H](O)CC3=O)ccc2c1=O)C(F)(F)F [Example 24]
3. O=C(N[C@H](C1CC1)C(F)(F)F)c1cn(-c2ncc(F)cc2F)c2nc(N3CCN(CCO)C3=O)ccc2c1=O [Example 121]
4. CC(C)C[C@@H](NC(=O)c1cn(-c2ncc(F)cc2F)c2nc(N3C[C@@H](O)CC3=O)ccc2c1=O)C(F)(F)F [Example 74]
5. CC(C)C(NC(=O)c1cn(-c2ncc(F)cc2F)c2nc(N3C[C@@H](O)CC3=O)ccc2c1=O)C(F)(F)F (stereo partly shown) [Example 154]

1: 100; 2: 87; 3: 99; 4: 100; 5: 100

From: patent US10519154B2
